Values from the supplement of paper PMC12533247

system: HSV-1 K26-GFP infected primary human skin cells; experiment: % change of HSV-1 GFP signal vs untreated infected cells; higher = less antiviral inhibition; conditions: 0.0823 µM; cell type: primary keratinocytes; donor: 5; time (h post infection): 20
Answer F if % change of HSV-1 GFP signal is under -20%, and T if it is -20% or more.

Please review the entries below; each comes with its answer.
compound: O=C(Nc1ccc([N+](=O)[O-])cc1Cl)c1cc(Cl)ccc1O [Niclosamide]
test.system: HSV-1 K26-GFP infected primary human skin cells
class.label: T
--
compound: CC(C)c1cnn2c(NCc3ccccc3-n3cccn3)nc(OC3CCCNC3)nc12 (stereo not given)
test.system: HSV-1 K26-GFP infected primary human skin cells
class.label: T
--
compound: COc1ccc(-c2nc(N3CCOCC3)c3sc(CN(C)c4ncc(C(=O)NO)cn4)cc3n2)cn1 [Fimepinostat]
test.system: HSV-1 K26-GFP infected primary human skin cells
class.label: F
--
compound: Cc1cccc(C)c1N(CC(=O)Nc1ccc(-c2ncon2)cc1)C(=O)C1CCS(=O)(=O)CC1
test.system: HSV-1 K26-GFP infected primary human skin cells
class.label: F
--
compound: Nc1ccn([C@@H]2O[C@H](CO)[C@@H](O)C2(F)F)c(=O)n1
test.system: HSV-1 K26-GFP infected primary human skin cells
class.label: F

Quick check: does `C=CC(=O)N1CC/C(=C\c2ccc(F)c([N+](=O)[O-])c2)C(=O)/C(=C/c2ccc(F)c([N+](=O)[O-])c2)C1` have % change of HSV-1 GFP signal greater than or equal to -20%?
T

Quick check: does O=C(/C=C\n1cnc(-c2cc(C(F)(F)F)cc(C(F)(F)F)c2)n1)NNc1ccccn1 [Verdinexor] have % change of HSV-1 GFP signal greater than or equal to -20%?
T

Quick check: does `CC1(C)CC(=O)c2c(C(F)(F)F)nn(-c3ccc(C(N)=O)c(N[C@H]4CC[C@H](O)CC4)c3)c2C1` have % change of HSV-1 GFP signal greater than or equal to -20%?
F

Quick check: does CC(=O)O[C@H]1C[C@H](O[C@H]2[C@@H](O)C[C@H](O[C@H]3[C@@H](O)C[C@H](O[C@H]4CC[C@@]5(C)[C@H](CC[C@@H]6[C@@H]5C[C@@H](O)[C@]5(C)[C@@H](C7=CC(=O)OC7)CC[C@]65O)C4)O[C@@H]3C)O[C@@H]2C)O[C@H](C)[C@H]1O[C@@H]1O[C@H](CO)[C@@H](O)[C@H](O)[C@H]1O [Lanatoside C] have % change of HSV-1 GFP signal greater than or equal to -20%?
F

Quick check: does `Cc1nc(N(C)C(=O)Cc2ccc(-c3ccccn3)cc2)sc1S(N)(=O)=O` have % change of HSV-1 GFP signal greater than or equal to -20%?
F
